Target: K (Kappa) opioid receptor (K sites) (Cavia porcellus)
Construct: fresh guinea pig brain homogenate; from tissue; host or cells: guinea pig whole brain without cerebellum, homogenate
Sequence (P41144 whole entry): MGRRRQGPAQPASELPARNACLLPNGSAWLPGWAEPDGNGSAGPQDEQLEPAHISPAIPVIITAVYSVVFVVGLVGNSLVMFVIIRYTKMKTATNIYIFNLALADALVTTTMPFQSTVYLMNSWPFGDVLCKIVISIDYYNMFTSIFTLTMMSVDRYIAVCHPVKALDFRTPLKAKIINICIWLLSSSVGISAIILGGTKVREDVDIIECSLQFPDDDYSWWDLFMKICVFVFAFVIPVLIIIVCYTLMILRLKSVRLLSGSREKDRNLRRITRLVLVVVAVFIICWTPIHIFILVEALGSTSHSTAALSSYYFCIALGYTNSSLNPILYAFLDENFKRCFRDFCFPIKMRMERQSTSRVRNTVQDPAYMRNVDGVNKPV
Experiment: Receptor binding to K sites (tritiated Ethylketocyclazocine)
Design: species or system guinea pig
Conditions: guinea pig brain homogenate, tritiated Ethylketocyclazocine with 100 nM DADLE and 100 nM DAGO, 25° C., 40 min; read-out: RECEPTOR BINDING Ki K
Counter-ions that a name gives are not always drawn.
Endpoint: pKi
Recall that pKi is obtained by taking minus log10 of the concentration measured in molar.

Input: Given the compound CN(C)CC1c2ccccc2CCN1C(=O)Cc1ccc(Cl)c(Cl)c1 (stereo not shown) [Example 1, hydrochloride] , what is its reported pKi?
Output: 8.80

----------
Biological target: μ opioid receptor (μ sites) (Cavia porcellus, UniProt A0ACM8Q262)
Sequence (A0ACM8Q262 1-400): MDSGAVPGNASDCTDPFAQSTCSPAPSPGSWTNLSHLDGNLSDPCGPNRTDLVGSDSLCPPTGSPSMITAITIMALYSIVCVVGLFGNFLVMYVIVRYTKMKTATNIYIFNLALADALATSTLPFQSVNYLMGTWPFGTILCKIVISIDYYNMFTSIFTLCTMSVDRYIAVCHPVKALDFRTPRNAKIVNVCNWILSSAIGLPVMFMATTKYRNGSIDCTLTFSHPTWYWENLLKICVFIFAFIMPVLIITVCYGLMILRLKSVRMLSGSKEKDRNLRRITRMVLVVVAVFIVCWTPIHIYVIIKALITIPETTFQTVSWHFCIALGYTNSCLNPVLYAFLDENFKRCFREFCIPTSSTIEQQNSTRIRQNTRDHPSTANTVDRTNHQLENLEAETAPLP
Assay: Receptor binding to μ sites (3H-DAGO)
Details: guinea pig brain homogenate, 25° C., 40 min, read-out: RECEPTOR BINDING Ki μ
Where a name gives a salt, the structure may show the parent alone.
Endpoint: Ki (nM)
Give the value in nM but do not write nM after it.

Input: Given the compound CN(C)CC1c2ccccc2CCN1C(=O)Cc1ccc(Br)cc1 (stereo not shown) [Example 4, hydrochloride] , what is its reported Ki?
Output: 597

Input: Given the compound CN(C)CC1c2ccccc2CCN1C(=O)Cc1ccc([N+](=O)[O-])cc1 (stereo not shown) [Example 5, hydrochloride hemihydrate] , what is its reported Ki?
Output: 655

Input: Given the compound O=C(Cc1ccccc1[N+](=O)[O-])N1CCc2ccccc2C1CN1CCCC1 (stereo not shown) [Example 13, hydrochloride hemihydrate] , what is its reported Ki?
Output: 1850
